Quick reference for gG2 mAb binding (OD) among some binders
systemTested: T1, truncated recombinant form of HBeAg containing nine residues of pre-core and the 150 first residues of HBcAg (hepatitis B virus, UniProt P03146 1-150)
T1 construct: domain: nine residues of pre-core;range 1-150; also called hepatitis B virus e antigen
T1 sequence (P03146 1-150): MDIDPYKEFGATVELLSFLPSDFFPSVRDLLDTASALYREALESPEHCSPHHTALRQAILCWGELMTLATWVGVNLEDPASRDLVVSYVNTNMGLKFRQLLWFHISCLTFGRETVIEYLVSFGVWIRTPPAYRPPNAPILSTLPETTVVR
methodNotes: EIA, HBeAg on solid phase, fusion peptide 20 ug/well, gG2 mAb detection

These recorded examples may help you get a feel for the data.
| binder | experimentalValue |
| --- | --- |
| KLSCKASGYIFTSEHRGGPEE (also called fusion peptide) [KLSCKASGYIFTSEHRGGPEE (SEQ. ID. No. 70)] | 0.022 OD |
| KLSCKASGYIFTSHRGGPEEF (also called fusion peptide) [KLSCKASGYIFTSHRGGPEEF (SEQ. ID. No. 71)] | 0.638 OD |
| KLSCKASGYIFTSRGGPEEFE (also called fusion peptide) [KLSCKASGYIFTSRGGPEEFE (SEQ. ID. No. 72)] | 0.04 OD |

Exam item: Identify the reported gG2 mAb binding (OD) for the following entry. VKLSCKASGYIFTSEHRGGPE (also called fusion peptide) [VKLSCKASGYIFTSEHRGGPE (SEQ. ID. No. 73)]
Marked response: 0.029 OD

Exam item: Identify the reported gG2 mAb binding (OD) for the following entry. VKLSCKASGYIFTSHRGGPEE [VKLSCKASGYIFTSHRGGPEE (SEQ. ID. No. 74)]
Marked response: 1.73 OD

Exam item: Identify the reported gG2 mAb binding (OD) for the following entry. VKLSCKASGYIFTSGGPEEFE (also called fusion peptide) [VKLSCKASGYIFTSGGPEEFE (SEQ. ID. No. 76)]
Marked response: 0.024 OD
